# Test system: RARg homodimer (NR concentration 270 nM)
# method-summary: PBM binding z-score (relative to random genomic background probes); higher = stronger binding; sequences stand for … in GC…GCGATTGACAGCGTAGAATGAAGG
readout-type: PBM binding z-score
Note: the reply should be a number with no unit written.

The examples below pair each entry with its known result.
input-sequence	PBM binding z-score
TTAACAAGGTGAAAGGTCGTTGATGCACGCCTTG	2.1
CCGAGTAGGTTACGAGGGAGCATTCAGTGCGAAT	0.53
TCGAGTATGTTACGGGGGCATTCAGGGATGAAGA	1.29
GCTGCTAGGTCAACTGATGGTCAGCTAAAGCTCG	5.18
CCGAGTAGGTTACGAGGGGGCATCCAGTGCGAAT	2.31

stdin: # lookup: PBM binding z-score of "ATATGTAGGTAAGGGTCATTCAGAAAGTAGGGAA"
stdout: 3.2

stdin: # lookup: PBM binding z-score of "CGAACTAGGTCCTTGACAGGACAGTGAATAGTAA"
stdout: -0.0699

stdin: # lookup: PBM binding z-score of "ATATGTAGGTTATGGTCATTCAGAAAGTAGGGAA"
stdout: 1.22

stdin: # lookup: PBM binding z-score of "ATATGTAGGTTACATGCGGGTCATTCAGGCTATG"
stdout: 2.18

stdin: # lookup: PBM binding z-score of "ATATGTAGGTTAGGTTCATTCAGAAAGTAGGGAA"
stdout: 1.35

stdin: # lookup: PBM binding z-score of "CAAACTAGGTCAAAGGTCAAAGTAGAGCCAACCA"
stdout: 7.32

stdin: # lookup: PBM binding z-score of "CTATGTAGGTTAAGGGGGTCATTCCGTTTGAAAG"
stdout: 4.02

stdin: # lookup: PBM binding z-score of "ATCGAAAGGTCGAAGGTGACTATACCCACCCGAA"
stdout: 3.63

stdin: # lookup: PBM binding z-score of "CGAACTAGGTCAAAGGACAGTCAAAGGCGACGTA"
stdout: 4.5

stdin: # lookup: PBM binding z-score of "CGTCCGAGGTCAATGCTAGGTCAGTGAAAGCATT"
stdout: 6.71

stdin: # lookup: PBM binding z-score of "CTATGTAGGTTAAGGGGGTGATTCAGTTTGAAAG"
stdout: 1.77

stdin: # lookup: PBM binding z-score of "AATACAGGGTCATTAGGCCAGAGTAGGTACGAAT"
stdout: 4.39

stdin: # lookup: PBM binding z-score of "CGAACTAGGTCAAAGGACAGTGATAGGCGACGTA"
stdout: 4.98

stdin: # lookup: PBM binding z-score of "ACTTACGGGTCAAGGAGGTTATAGCACGCGTATA"
stdout: 4.78

stdin: # lookup: PBM binding z-score of "CCTGCTAGGTCAATGGTCAGCTAAAGCAGCTCGC"
stdout: 4.47

---

# Tested on: PPARg:RXRa IVT, anti-PPARg (NR concentration 270 nM, RXRa partner concentration 90 nM)
# method-summary: PBM binding z-score (relative to random genomic background probes); higher = stronger binding; sequences stand for … in GC…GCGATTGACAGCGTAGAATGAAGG
readout-type: PBM binding z-score
Note: the reply should be a number with no unit written.

input-sequence	PBM binding z-score
TCGAGTACGTTACGGGGGCATTCAGGGATGAAGA	2.5

stdin: # lookup: PBM binding z-score of "CCGAGTAAGTTACGAGGGGGCATTCAGTGCGAAT"
stdout: 0.899

stdin: # lookup: PBM binding z-score of "AGTCAGAGTTCATCTAGGTAACGTAAGATATGCT"
stdout: 2.55

stdin: # lookup: PBM binding z-score of "ATCGAAAGGTCGTGACGTGAGTATACAGAAAGGC"
stdout: 1.68

stdin: # lookup: PBM binding z-score of "TAGCCTAGGTCATTCAGGGGTCAGTATAGAAAGC"
stdout: 3.97

stdin: # lookup: PBM binding z-score of "GATACGGGGTCAGCTAGAGGCCAGAGTATGGAAA"
stdout: 4.66

stdin: # lookup: PBM binding z-score of "GCTGCTAGGTAAGGTTGGTCAGCTAACGGGTACG"
stdout: 0.0144
